Known %-ACC (percent mean accuracy vs nominal) of a selection of molecules
# Experimental protocol: Stability in dog plasma (accelerated, freeze-thaw, frozen PK samples)
# Type: in vitro ADME
# Reported conditions: dog plasma, 4 hours RT

- Molecule: "Nc1ccn([C@@H]2O[C@H](COP(=O)(O)O)[C@@H](O)C2(F)F)c(=O)n1 [GEMMP, gemcitabine-5′-phosphate]"
  %-ACC (percent mean accuracy vs nominal), %: 98.2
- Molecule: "O=c1ccn([C@@H]2O[C@H](CO)[C@@H](O)C2(F)F)c(=O)[nH]1 [dFdU, 2′,2′-difluoro-2′-deoxyuridine]"
  %-ACC (percent mean accuracy vs nominal), %: 101.3
- Molecule: "O=c1ccn([C@@H]2O[C@H](COP(=O)(O)O)[C@@H](O)C2(F)F)c(=O)[nH]1 [dFdUMP]"
  %-ACC (percent mean accuracy vs nominal), %: 86.7
- Molecule: "Nc1ccn([C@@H]2O[C@H](CO)[C@@H](O)C2(F)F)c(=O)n1 [GEM, gemcitabine]"
  %-ACC (percent mean accuracy vs nominal), %: 101.7

----------
# Experimental protocol: Proof-of-concept mouse PK study, plasma levels of GEM-IB and metabolites by HPLC-MS/MS
# Type: in vivo, mice
# Reported conditions: ip, after GEM-IB 5 mg/kg i.p., read-out: Tmax
# Description: Assay A (GEM-IB and IB): The extraction of calibration standards, quality control samples, and PK study samples was identical. […] Assay A (GEM-IB and IB): Quantification of the analytes was carried out using high-performance liquid chromatography–tandem mass spectrometry (HPLC-MS/MS). […] Data were acquired in negative multiple reaction monitoring (MRM) mode and all compounds were detected as [M–H ]^−. […]
Known Tmax of a selection of molecules
Readout: Tmax (min)

- Molecule: "CCCCCN(C)CCC(O)(P(=O)(O)O)P(=O)(O)OP(=O)(O)OC[C@H]1O[C@@H](n2ccc(N)nc2=O)C(F)(F)[C@@H]1O (some centres unmarked)"
  Assay result: 4.98
- Molecule: "O=c1ccn([C@@H]2O[C@H](CO)[C@@H](O)C2(F)F)c(=O)[nH]1"
  Assay result: 60
- Molecule: "O=c1ccn([C@@H]2O[C@H](COP(=O)(O)O)[C@@H](O)C2(F)F)c(=O)[nH]1"
  Assay result: 4.98
- Molecule: "Nc1ccn([C@@H]2O[C@H](COP(=O)(O)O)[C@@H](O)C2(F)F)c(=O)n1 [GEMMP, gemcitabine-5′-phosphate]"
  Assay result: 4.98
- Molecule: "CCCCCN(C)CCC(O)(P(=O)(O)O)P(=O)(O)O [IB, ibandronate]"
  Assay result: 4.98

----------
Known half-life of a selection of compounds
# Experimental protocol: Proof-of-concept dog PK study, plasma levels of GEM-IB and metabolites by HPLC-MS/MS
# Assay type: in vivo, beagle dogs
# Reported conditions: beagle, dog, plasma, iv, 5 mg/kg, after the end of the 30 min i.v. infusion of GEM-IB 5 mg/kg, read-out: half-life
Readout: half-life

- Compound: "CCCCCN(C)CCC(O)(P(=O)(O)O)P(=O)(O)O [IB, ibandronate]"
  Assay result: "55 min"
- Compound: "CCCCCN(C)CCC(O)(P(=O)(O)O)P(=O)(O)OP(=O)(O)OC[C@H]1O[C@@H](n2ccc(N)nc2=O)C(F)(F)[C@@H]1O (some centres unmarked)"
  Assay result: "< 1 min"

// provenance: paper PMC11767451
